Provide the reported pIC50 of each item.
- systemUnderTest: NK-1 (Homo sapiens, UniProt P25103)
- Construct: endogenous in cells
- Sequence (P25103 whole entry): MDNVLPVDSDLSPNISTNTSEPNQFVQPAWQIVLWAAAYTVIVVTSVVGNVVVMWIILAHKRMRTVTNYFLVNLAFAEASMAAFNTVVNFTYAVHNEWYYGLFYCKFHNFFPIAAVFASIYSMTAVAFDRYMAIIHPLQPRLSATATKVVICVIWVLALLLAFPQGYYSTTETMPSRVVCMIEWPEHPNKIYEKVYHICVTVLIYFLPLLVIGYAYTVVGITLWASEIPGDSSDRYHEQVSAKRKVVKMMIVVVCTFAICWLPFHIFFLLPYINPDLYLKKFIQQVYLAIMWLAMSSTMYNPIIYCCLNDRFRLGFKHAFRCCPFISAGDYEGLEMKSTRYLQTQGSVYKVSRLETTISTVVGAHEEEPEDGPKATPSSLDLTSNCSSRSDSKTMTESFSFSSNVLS
- assaySummary: NK1 radioligand binding assay
- runParameters: U373 membrane preparation, [125I]Substance P
pIC50: −log10 of the molar value.

[ask] Please look at `CN1CCC(COCc2cc(C(F)(F)F)cc(-c3ccncc3)n2)(c2ccccc2)CC1` and tell me its recorded pIC50 on NK-1 (Homo sapiens, UniProt P25103).
[reply] 7.00 to 11.00

[ask] Please look at CC(OCC1(c2ccc(F)cc2)CCN(C)CC1)c1cc(C(F)(F)F)cc(-c2ccc(C#N)cc2)n1 (centres unmarked) and tell me its recorded pIC50 on NK-1 (Homo sapiens, UniProt P25103).
[reply] 7.00 to 11.00

[ask] Please look at `Clc1ccc(-c2ccc(COCC3(c4ccccc4)CCNCC3)cn2)cc1` and tell me its recorded pIC50 on NK-1 (Homo sapiens, UniProt P25103).
[reply] < 6.52

[ask] Please look at N#CC1CCN(c2cc(C(F)(F)F)cc(COCC3(c4ccc(F)cc4)CCNCC3)n2)C1 (centres unmarked) and tell me its recorded pIC50 on NK-1 (Homo sapiens, UniProt P25103).
[reply] 7.00 to 11.00

[ask] Please look at `CN1CCC(COCc2cc(C(F)(F)F)cc(-c3ccc(C#N)cc3)n2)(c2ccccc2F)CC1` and tell me its recorded pIC50 on NK-1 (Homo sapiens, UniProt P25103).
[reply] 7.00 to 11.00

[ask] Please look at `COc1cc(OC)nc(COCC2(c3ccccc3)CCNCC2)n1` and tell me its recorded pIC50 on NK-1 (Homo sapiens, UniProt P25103).
[reply] < 6.52

[ask] Please look at `CN1CCC(COCc2cc(C(F)(F)F)cc(-c3ccc[nH]3)n2)(c2ccc(F)cc2)CC1` and tell me its recorded pIC50 on NK-1 (Homo sapiens, UniProt P25103).
[reply] 7.00 to 11.00

[ask] Please look at `Cc1cc(C(F)(F)F)cc(COCC2(c3ccc(F)cc3)CCN(C)CC2)n1` and tell me its recorded pIC50 on NK-1 (Homo sapiens, UniProt P25103).
[reply] 7.00 to 11.00

====

- systemUnderTest: NK-1 (Homo sapiens)
- Construct: endogenous in cells
- assaySummary: NK1 radioligand binding assay
- runParameters: U373 membrane preparation, [125I]Substance P
Provide the reported IC50 of each item.

[ask] Fill in reported IC50 for this entry: CN1CCC(COCc2cc(C(F)(F)F)cc(-c3ccc(C#N)cc3)n2)(c2ccc(F)c(F)c2)CC1 [Example 81]
[reply] 0.01 to 100 nM

[ask] Fill in reported IC50 for this entry: CN1CCC(COCc2cncc(-c3ccco3)c2)(c2ccccc2)CC1 [Example 49]
[reply] > 300 nM

[ask] Fill in reported IC50 for this entry: Cc1ccc(-c2cc(C(F)(F)F)cc(COCC3(c4ccccc4)CCN(C)CC3)n2)cc1 [Example 40]
[reply] 0.01 to 100 nM

[ask] Fill in reported IC50 for this entry: CC(OCC1(c2ccc(F)cc2)CCN(C)CC1)c1cc(C(F)(F)F)cc(Br)n1 (centres unmarked) [Example 33]
[reply] 0.01 to 100 nM

[ask] Fill in reported IC50 for this entry: Cc1cc(-c2cc(C(F)(F)F)cc(COCC3(c4ccccc4)CCN(C)CC3)n2)ccc1C#N [Example 60]
[reply] 0.01 to 100 nM

[ask] Fill in reported IC50 for this entry: CN1CCC(COCc2cc(C(F)(F)F)cc(-c3ccc(C#N)cc3)n2)(c2cccnc2)CC1 [Example 98]
[reply] 0.01 to 100 nM

[ask] Fill in reported IC50 for this entry: Fc1ccc(C2(COCc3cc(C(F)(F)F)cc(N4CCCC4)n3)CCNCC2)cc1 [Example 20]
[reply] 0.01 to 100 nM

[ask] Fill in reported IC50 for this entry: Fc1ccc(C2(COCc3cc(C(F)(F)F)cc(-c4ccc(F)cc4F)n3)CCNCC2)cc1 [Example 12]
[reply] 0.01 to 100 nM

[ask] Fill in reported IC50 for this entry: CN1CCC(COCc2cc(C(F)(F)F)cc(N3CC[C@H](F)C3)n2)(c2ccc(F)cc2)CC1 [Example 91]
[reply] 0.01 to 100 nM

[ask] Fill in reported IC50 for this entry: CCC(CC)Nc1cc(C(F)(F)F)cc(COCC2(c3ccc(F)cc3)CCNCC2)n1 [Example 21]
[reply] 0.01 to 100 nM

[ask] Fill in reported IC50 for this entry: CN1CCC(COCc2cc(C(F)(F)F)cc(N3CCC(F)(F)C3)n2)(c2ccc(F)cc2)CC1 [Example 89]
[reply] 0.01 to 100 nM

[ask] Fill in reported IC50 for this entry: c1ccc(C2(COCc3cncc(-c4ccco4)c3)CCNCC2)cc1 [Example 9]
[reply] > 300 nM

[ask] Fill in reported IC50 for this entry: CN1CCC(COCc2ccc(-c3ccc(Cl)cc3)nc2)(c2ccccc2)CC1 [Example 50]
[reply] > 300 nM

[ask] Fill in reported IC50 for this entry: CC(OCC1(c2ccccc2)CCNCC1)c1cc(C(F)(F)F)cc(C(F)(F)F)n1 (centres unmarked) [Example 27]
[reply] 0.01 to 100 nM

[ask] Fill in reported IC50 for this entry: N#CC1CCN(c2cc(C(F)(F)F)cc(COCC3(c4ccc(F)cc4)CCNCC3)n2)CC1 [Example 17]
[reply] 0.01 to 100 nM

[ask] Fill in reported IC50 for this entry: CN1CCC(COCc2cc(C(F)(F)F)cc(Cl)n2)(c2cccnc2)CC1 [Example 35]
[reply] > 300 nM

[ask] Fill in reported IC50 for this entry: CN1CCC(COCc2cc(C(F)(F)F)cc(-c3ccc(C#N)cc3)n2)(c2ccc(F)cc2F)CC1 [Example 64]
[reply] 0.01 to 100 nM

====

- systemUnderTest: hSERT (Homo sapiens, UniProt P31645)
- Construct: expressed in transfected cells; host or cells: HEK-293 cells (crude membranes)
- Sequence (P31645 whole entry): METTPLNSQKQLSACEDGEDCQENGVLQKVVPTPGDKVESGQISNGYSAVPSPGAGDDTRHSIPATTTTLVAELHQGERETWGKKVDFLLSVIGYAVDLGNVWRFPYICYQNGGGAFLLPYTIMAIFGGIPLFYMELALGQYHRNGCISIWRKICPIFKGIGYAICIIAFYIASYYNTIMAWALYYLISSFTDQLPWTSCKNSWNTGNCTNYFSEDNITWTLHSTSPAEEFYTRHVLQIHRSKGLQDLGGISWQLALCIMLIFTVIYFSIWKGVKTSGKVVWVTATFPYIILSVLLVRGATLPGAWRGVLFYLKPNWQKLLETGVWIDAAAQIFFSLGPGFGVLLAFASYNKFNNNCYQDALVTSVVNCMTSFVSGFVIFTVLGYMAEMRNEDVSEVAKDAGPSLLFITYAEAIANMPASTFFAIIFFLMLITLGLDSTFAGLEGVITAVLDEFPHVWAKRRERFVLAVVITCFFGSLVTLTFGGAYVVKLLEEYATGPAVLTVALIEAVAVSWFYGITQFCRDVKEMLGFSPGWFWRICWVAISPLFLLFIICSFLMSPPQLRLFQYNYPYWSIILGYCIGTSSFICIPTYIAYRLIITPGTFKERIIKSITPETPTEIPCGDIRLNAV
- assaySummary: SERT radioligand binding assay
observationType: IC50

[ask] Please look at `COC(=O)c1ccc(-c2cc(C(F)(F)F)cc(COCC3(c4ccc(F)cc4)CCN(C)CC3)n2)c(F)c1` and tell me its recorded IC50 on hSERT (Homo sapiens, UniProt P31645).
[reply] 0.01 to 100 nM

[ask] Please look at `CN1CCC(COCc2cc(C(F)(F)F)cc(-c3ccc(F)cc3F)n2)(c2ccc(F)cc2)CC1` and tell me its recorded IC50 on hSERT (Homo sapiens, UniProt P31645).
[reply] 0.01 to 100 nM

[ask] Please look at `CN1CCC(COCc2cc(C(F)(F)F)cc(-c3ccc(C#N)cc3)n2)(c2cccnc2)CC1` and tell me its recorded IC50 on hSERT (Homo sapiens, UniProt P31645).
[reply] 0.01 to 100 nM

[ask] Please look at `CN1CCC(COCc2cc(C(F)(F)F)cc(-c3ccc(C#N)cc3)n2)(c2cccc(C(F)(F)F)c2)CC1` and tell me its recorded IC50 on hSERT (Homo sapiens, UniProt P31645).
[reply] 100 to 300 nM

====

- systemUnderTest: hSERT (Homo sapiens, UniProt P31645)
- Construct: expressed in transfected cells; host or cells: HEK-293 cells (crude membranes)
- assaySummary: SERT radioligand binding assay
- Experimental: NK-1 Binding assay. Crude membrane suspensions were prepared for the NK1 and SERT radioligand binding assays from U373 cells or recombinant HEK-293 cells expressing hSERT, respectively. […] The medium is removed from the flasks and the cells rinsed with HBSS without Ca and without Mg. […] SERT radioligand binding assay. […] The plates are air-dried overnight, 12 ul/well of MicroScint scintillation fluid added, and the plates counted in a Trilux. […]
pIC50: −log10 of the molar value.
Provide the reported pIC50 of each item.

[ask] Fill in reported pIC50 for this entry: `Cc1cc(C(F)(F)F)cc(COCC2(c3ccc(F)cc3)CCN(C)CC2)n1`
[reply] 7.00 to 11.00

[ask] Fill in reported pIC50 for this entry: Cc1cc(-c2cc(C(F)(F)F)cc(C(C)OCC3(c4ccc(F)cc4)CCN(C)CC3)n2)ccc1C#N (stereo not shown)
[reply] 6.52 to 7.00

[ask] Fill in reported pIC50 for this entry: CC(OCC1(c2ccccc2)CCN(C)CC1)c1cc(C(F)(F)F)cc(-c2ccc(C#N)cc2)n1 (stereo not shown)
[reply] 7.00 to 11.00

[ask] Fill in reported pIC50 for this entry: `COc1cc(COCC2(c3ccc(F)cc3)CCN(C)CC2)cc(-c2ccc(C#N)cc2)n1`
[reply] 7.00 to 11.00

====

- systemUnderTest: NK-1 (Homo sapiens, UniProt P25103)
- Construct: endogenous in cells
- assaySummary: NK1 radioligand binding assay
- runParameters: U373 membrane preparation, [125I]Substance P
observationType: IC50

[ask] Please look at `CCN(CC)c1cc(C(F)(F)F)cc(COCC2(c3ccc(F)cc3)CCNCC2)n1` and tell me its recorded IC50 on NK-1 (Homo sapiens, UniProt P25103).
[reply] 0.01 to 100 nM

[ask] Please look at `CN1CCC(COCc2cc(C(F)(F)F)cc(-c3ccc(F)cc3F)n2)(c2ccc(F)cc2)CC1` and tell me its recorded IC50 on NK-1 (Homo sapiens, UniProt P25103).
[reply] 0.01 to 100 nM

[ask] Please look at `CN1CCC(COCc2cc(N3CCCC3)cc(C(F)(F)F)n2)(c2ccccc2)CC1` and tell me its recorded IC50 on NK-1 (Homo sapiens, UniProt P25103).
[reply] 0.01 to 100 nM

[ask] Please look at `CN1CCC(COCc2cc(-c3ccc(C#N)cc3)nc(-c3ccc(C#N)cc3)c2)(c2ccccc2)CC1` and tell me its recorded IC50 on NK-1 (Homo sapiens, UniProt P25103).
[reply] > 300 nM

[ask] Please look at `N#Cc1ccc(-c2cncc(COCC3(c4ccccc4)CCNCC3)c2)cc1` and tell me its recorded IC50 on NK-1 (Homo sapiens, UniProt P25103).
[reply] > 300 nM

[ask] Please look at `N#Cc1ccc(-c2cc(C(F)(F)F)cc(COCC3(c4ccc(F)cc4)CCNCC3)n2)cc1` and tell me its recorded IC50 on NK-1 (Homo sapiens, UniProt P25103).
[reply] 0.01 to 100 nM

[ask] Please look at CC(OCC1(c2ccc(F)cc2)CCN(C)CC1)c1cc(C(F)(F)F)cc(N2CC[C@@H](F)C2)n1 (some centres unmarked) and tell me its recorded IC50 on NK-1 (Homo sapiens, UniProt P25103).
[reply] 0.01 to 100 nM

[ask] Please look at CC(OCC1(c2ccccc2)CCNCC1)c1cc(C(F)(F)F)cc(N2CCOCC2)n1 (centres unmarked) and tell me its recorded IC50 on NK-1 (Homo sapiens, UniProt P25103).
[reply] 0.01 to 100 nM
